- System: SK-MEL-28 melanoma
- Protocol: NCI-60 one-dose screen, 48 h
- Condition details: 10 µM unless noted
About 83,000 compounds went through this panel and 20% of them were active in at least one assay; those are over-represented in the sample as a whole. Calls of active or inactive are those of the source. How the source made its calls: active means growth percent below 10; inactive means the rest.
Write down the outcome that applies. Available outcomes: label 1 (active), label 0 (inactive)

Recorded test call requested for `O=S(=O)(CC(O)(c1ccccc1)c1ccccc1)CC(O)(c1ccccc1)c1ccccc1`
label 0

Recorded test call requested for `COc1ccc(NC(=O)c2c(Nc3ccc(OC)cc3OC)n[nH]c2N)c(OC)c1`
label 0

Recorded test call requested for CC(O)CN1CCCCC1 (centres undefined)
label 0

Recorded test call requested for `COc1ccc2c(c1)[nH]c(=O)c1c3cc(C)c(C)cc3cn21`
label 1

----------
- Test system: NCI-H322M lung
- Protocol: NCI-60 one-dose screen, 48 h (100 = growth as untreated, 0 = no growth, -100 = all killed)
- Condition details: 10 µM unless noted
The panel holds about 83,000 compounds, 20% with a hit somewhere; the sample as a whole holds those more often.
Listing of recorded growth by entry.
Respond with the bare value in %.

Returns the measured growth for the input compound. Input: CC1CN(c2oc(-c3ccccc3)nc2C#N)CC(C)O1 (stereo unspecified)
99.1

----------
- Test system: HOP-92 NSCLC
- Protocol: NCI-60 one-dose screen, 48 h (100 = growth as untreated, 0 = no growth, -100 = all killed)
- Condition details: 10 µM unless noted
Compounds without any hit were thinned out: in the full panel of roughly 83,000, 20% have a hit. The source made the active and inactive calls. Rule for the calls: active = growth percent below 10; inactive = the rest.
Readout label: growth

Some compounds with recorded growth:
| Compound | growth |
| --- | --- |
| COc1cc2c(cc1O)CCN1C[C@@H](CC(C)C)[C@@H](O)C[C@@H]21 | 63.8% (inactive) |
| ClC(Cl)c1nc(-c2cccnc2)n2nc(-c3ccccc3)cc2n1 | -0.78% (active) |
| Cc1cc(N/N=C/c2nc(-c3ccc(Br)cc3)oc2C)c2cc(Cl)ccc2n1 | 72% (inactive) |
| COc1cc(-c2nn(-c3cccc(NC(=O)Nc4cccc(C(F)(F)F)c4)c3)cc2-c2ccncc2)ccc1Cl | -33.6% (active) |

Item COc1ccc2c(c1)NC1=C(C(=O)OC1)C2c1cc(OC)c2c(c1)OCO2 (stereo not drawn) with HOP-92 NSCLC - growth?
43.8% (inactive)

Item `C=C1c2nc3ccccc3n2C=C(c2ccc(Cl)cc2)N1Cc1ccccc1` with HOP-92 NSCLC - growth?
73.6% (inactive)

Item C=C1CCC2C3(C)COC(c4ccc(N(C)C)cc4)OC3CCC2(C)C1C/C=C1/C(=O)OCC1O (stereo not drawn) with HOP-92 NSCLC - growth?
68.9% (inactive)

Item `CC(C)OC(=O)N1CCOCC1` with HOP-92 NSCLC - growth?
92.2% (inactive)

Item `C/C(=C\c1ccc(OCC(=O)O)c(Cl)c1Cl)[N+](=O)[O-]` with HOP-92 NSCLC - growth?
104% (inactive)

Item `O=C1C(Cl)=C(Nc2ccccn2)C(=O)c2ccccc21` with HOP-92 NSCLC - growth?
102% (inactive)

Item `COc1ccc(-n2c(=S)sc3c(Cl)nc(C)nc32)c(OC)c1` with HOP-92 NSCLC - growth?
54.2% (inactive)

Item `COc1ccc2[nH]c(=O)c3c4ccccc4cn3c2c1` with HOP-92 NSCLC - growth?
33.7% (inactive)

Item `Cc1ccc(/C=C2\CN(C(=O)CCN3CCC(=NO)CC3)C/C(=C\c3ccc(C)cc3)C2=O)cc1` with HOP-92 NSCLC - growth?
72.2% (inactive)
